target: Regulatory protein E2 (Human papillomavirus type 1a); test: Binding affinity to HPV1a recombinant E2 protein activator domain by surface plasmon resonance assay
Sequence (P03118 whole entry, the tested form may be a part): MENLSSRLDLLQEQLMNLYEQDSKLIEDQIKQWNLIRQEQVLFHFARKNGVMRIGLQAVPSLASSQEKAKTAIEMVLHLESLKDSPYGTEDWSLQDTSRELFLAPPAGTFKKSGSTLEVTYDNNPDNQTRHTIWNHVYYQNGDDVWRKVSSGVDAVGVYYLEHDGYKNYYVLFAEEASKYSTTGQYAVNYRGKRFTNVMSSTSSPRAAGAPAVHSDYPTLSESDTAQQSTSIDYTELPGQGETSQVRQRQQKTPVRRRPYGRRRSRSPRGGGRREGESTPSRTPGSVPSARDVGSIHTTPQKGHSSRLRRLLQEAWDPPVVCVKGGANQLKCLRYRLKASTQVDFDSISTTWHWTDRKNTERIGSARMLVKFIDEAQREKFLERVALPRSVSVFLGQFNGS
pKd: −log10 of the molar value.
READOUT LABEL: pKd

GET /value?item= COc1cc([C@@H]2c3cc4c(cc3[C@H](O)[C@H]3COC(=O)[C@H]23)OCO4)cc(OC)c1OC &field=pKd returns < 3.40

meta.source: ChEMBL document CHEMBL1150238
